Tested on: BT-474
EXPERIMENTAL DETAILS: relative IC50 (midpoint of fitted logistic curve, plateau may be below 50% inhibition; CellTiter-Glo viability); higher = less potent
REPORTED CONDITIONS: 4-OH-tamoxifen in medium 1 µM; 72 h
MEASURED METRIC: relative IC50 (µM)
Numeric only. Scale: µM

| COMPOUND | relative IC50, µM |
| --- | --- |
| C[C@@H]1C=C2C(=O)O[C@@H]3CC[C@H](C1)[C@]23O | 17.3 |

relative IC50 reported for this compound Cc1sc2c(c1C)C(c1ccc(Cl)cc1)=N[C@@H](CC(=O)OC(C)(C)C)c1nnc(C)n1-2 [(+)JQ1] : 1.06

====

Test system: ZR-75-1 Tam1
EXPERIMENTAL DETAILS: relative IC50 (midpoint of fitted logistic curve, plateau may be below 50% inhibition; CellTiter-Glo viability); higher = less potent
REPORTED CONDITIONS: 4-OH-tamoxifen in medium 1 µM; 72 h
Some compounds, each annotated with its measured relative IC50.
Numeric only. Scale: nM

| SMI | relative IC50 [nM] |
| --- | --- |
| Cn1c(=O)n(-c2ccc(C(C)(C)C#N)cc2)c2c3cc(-c4cnc5ccccc5c4)ccc3ncc21 | 7.16 |

relative IC50 reported for this compound `C=CCNC1=C2C[C@@H](C)C[C@H](OC)[C@H](O)[C@@H](C)/C=C(\C)[C@H](OC(N)=O)[C@@H](OC)/C=C\C=C(/C)C(=O)NC(=CC1=O)C2=O` : 284

relative IC50 reported for this compound `COC1=C2C[C@@H](C)C[C@H](OC)[C@H](O)[C@@H](C)/C=C(\C)[C@H](OC(N)=O)[C@@H](OC)/C=C\C=C(/C)C(=O)NC(=CC1=O)C2=O` : 1120

====

Tested on: ZR-75-1 Tam1
EXPERIMENTAL DETAILS: viability inhibition at highest dose (% inhibition); higher = more growth inhibition
REPORTED CONDITIONS: 4-OH-tamoxifen in medium 1 µM; 72 h
MEASURED METRIC: viability inhibition at highest dose
The answer should be a number; do not append a unit.

// assay ZR-75-1 Tam1, entry C/C(=C\c1csc(C)n1)[C@@H]1C[C@@H]2O[C@]2(C)CCC[C@H](C)[C@H](O)[C@@H](C)C(=O)C(C)(C)[C@@H](O)CC(=O)N1 [Ixabepilone] (drug 1000 nM) , viability inhibition at highest dose value = -3.74

====

Some compounds, each annotated with its measured drug sensitivity score.
Tested on: BT-474
EXPERIMENTAL DETAILS: drug sensitivity score (DSS) (DSS (dimensionless)); higher = more sensitive; extreme values may be limits of the assay
REPORTED CONDITIONS: 4-OH-tamoxifen in medium 0 µM; 72 h
The answer should be a number; do not append a unit.

These solved cases illustrate the format of a correct answer.
| COMPOUND | MEAS VALUE |
| --- | --- |
| CCC1(c2ccc(N)cc2)CCC(=O)NC1=O (stereo not drawn) [Aminoglutethimide] | 0 |
| CC(C)C[C@H](NC(=O)[C@H](Cc1ccccc1)NC(=O)c1cnccn1)B(O)O | 13.2 |
| N[C@@H](CSC(c1ccccc1)(c1ccccc1)c1ccccc1)C(=O)O | 0 |
| C[C@]12CC[C@H](O)CC1=CC[C@@H]1[C@@H]2CC[C@]2(C)C(c3cccnc3)=CC[C@@H]12 | 0 |
| Cc1ccc(C(=O)Nc2ccc(CN3CCN(C)CC3)c(C(F)(F)F)c2)cc1C#Cc1cnc2cccnn12 | 0 |

drug sensitivity score reported for this compound `C[C@]1(O)C[C@@H](c2nc(-c3ccc4ccc(-c5ccccc5)nc4c3)c3c(N)nccn32)C1` : 0

drug sensitivity score reported for this compound `COC1=CC(c2cc3ccccc3[nH]2)=N/C1=C\c1[nH]c(C)cc1C` : 6.87

drug sensitivity score reported for this compound `O=C(Nc1ccncc1)C(=O)c1cn(Cc2ccc(Cl)cc2)c2ccccc12` : 0.543
